# PROTOCOL TEXT: physchem
# CONDITION NOTES: pH 7.4, aqueous buffer, kinetic from dmso stock, Solubility Range
Exercise: for every item that follows, state its recorded solubility at 24 h.

Dear colleague, could you send me solubility at 24 h for each of the items below? Thanks.
1. CCNC(=O)Nc1nc2cc(-c3cnc(N4CCC(C)(C(=O)O)CC4)nc3)cc(-c3cc(F)ccn3)c2s1
2. CCNC(=O)Nc1nc2cc(-c3cnc(NC4COC(C)(C(=O)OCC)OC4)nc3)cc(-c3ccccn3)c2s1 (stereo not shown)
3. CCNC(=O)Nc1nc2cc(-c3cnc(N4CCC(C)(C(=O)O)CC4)nc3)cc(-c3cn(C)nn3)c2s1
4. CCNC(=O)Nc1nc2cc(-c3cnc(N4CCC(CC)(C(=O)O)CC4)nc3)cc(-c3ncc(C)cn3)c2s1
5. CCNC(=O)Nc1nc2cc(-c3cnc(N4CCC(CC)(C(=O)O)CC4)nc3)cc(/C(CC)=N/OC)c2s1
6. CCNC(=O)Nc1nc2cc(-c3cnc(N4CCC(C)(C(=O)O)CC4)nc3)cc(C#Cc3ncccn3)c2s1
7. CCNC(=O)Nc1nc2cc(-c3cnc(N4CCC(C)(C(=O)O)CC4)nc3)cc(C#Cc3ccncn3)c2s1

Result:
1: 12.5 to 400 µg/mL; 2: 12.5 to 400 µg/mL; 3: > 800 µg/mL; 4: > 800 µg/mL; 5: > 800 µg/mL; 6: 12.5 to 400 µg/mL; 7: 400 to 800 µg/mL
